Tested on: OVCAR-4 ovarian
Test: NCI-60 one-dose screen, 48 h
Settings: 10 µM unless noted
Compounds without any hit were thinned out: in the full panel of roughly 83,000, 20% have a hit. Activity calls are given as the source filed them. Rule for the calls: active = growth percent below 10; inactive = the rest.
The reply should name one outcome from 1.0 (active), 0.0 (inactive)

Take a look at these entries with their results.
compound | label_class
CCn1c(C)nc([N+](=O)[O-])c1Sc1nc(N)nc2nc[nH]c12 | 0.0
CN(C)c1ccc2cc(-c3nc4ccccc4s3)c(N)nc2c1 | 0.0
Cc1ccc(N(CC2=NCCN2)c2cccc(O)c2)cc1 | 0.0
COc1cc(Nc2ncccc2C(=O)Nc2nc3ccc(F)cc3s2)cc(OC)c1OC | 1.0
CN1CCN(C(=O)/C=C/c2ccc([N+](=O)[O-])o2)CC1 | 0.0
CCOC(=O)C1CSC(C)(C(=O)OCC)N1 (configuration not stated) | 0.0
Cc1ccc(-c2cn3cc([N+](=O)[O-])ccc3n2)cc1 | 0.0
Cc1ccc(NC(=O)CN2CCOCC2)cc1Cl | 0.0
CCc1ccc(C2=C/C(=C/c3ccc(Cl)cc3)C(=O)N2CCc2ccc(S(N)(=O)=O)cc2)cc1 | 0.0
CSc1ccc(C(=O)C[n+]2cccc(C)c2)cc1 | 0.0

Which result was noted for this compound in the test: O=c1c(-c2ccc3c(c2)OCO3)coc2c(CO)c(O)ccc12
0.0

Which result was noted for this compound in the test: CC1(C)N=C(N)N=C(N)N1c1cccc(CCCCc2ccccc2)c1
1.0

* * *

Test system: K-562 leukemia
Assay: NCI-60 one-dose screen, 48 h (100 = growth as untreated, 0 = no growth, -100 = all killed)
Settings: 10 µM unless noted
The panel holds about 83,000 compounds, 20% with a hit somewhere; the sample as a whole holds those more often.
Reported values of growth for individual entries
The response must be a number in % with no trailing unit.

Some solved entries appear below for comparison.
compound | growth [%]
CC1(C)Cc2c(Br)c(Br)c(Br)c(OCC(O)CN3CCN(c4ccccn4)CC3)c2O1 (configuration not stated) | 36.4
ClC1c2ccccc2CCc2ccccc21 | 109
c1ccc2c(c1)Oc1cccnc1-n1nccc1-2 | 104
CCC(CC(C)C)Nc1ccc(NC(CC)CC(C)C)cc1 (configuration not stated) | -4.28
CN(C)c1ccc(/C=N/N=C(N)N)cc1 | 40
NS(=O)(=O)c1ccc(-n2nc(-c3ccc(Cl)cc3)ccc2=O)cc1 | 45.9

# ---- query compound ----
Answer with reported growth of O=C(CSc1nnc(-c2ccccc2)o1)Nc1ccc(C(=O)/C=C/c2ccccc2)cc1
8.02

* * *

Reported values of growth for individual entries
Test system: HT29 colon
Experiment: NCI-60 one-dose screen, 48 h (100 = growth as untreated, 0 = no growth, -100 = all killed)
Settings: 10 µM unless noted
The panel holds about 83,000 compounds, 20% with a hit somewhere; the sample as a whole holds those more often.
The response must be a number in % with no trailing unit.

Some solved entries appear below for comparison.
compound | system_tested | units_of_measure | growth
CCOC(=O)C1CSC(C)(C(=O)OCC)N1 (centres undefined) | HT29 colon | % | 87.9
COc1ccc(C2=NN(C(=O)COc3ccc(Cl)cc3)C(O)(c3cc(F)c(Cl)cc3Cl)C2)cc1 (centres undefined) | HT29 colon | % | 99.4
O=S(=O)(O)c1ccc(F)cc1 | HT29 colon | % | 96.5
NC(CSC(c1ccccc1)(c1ccccc1)c1ccc(F)cc1)C(=O)O (centres undefined) | HT29 colon | % | 4.36
CCN(CC)CCNCC(O)Cc1ccc(OC)cc1 (centres undefined) | HT29 colon | % | 77.4

# ---- query compound ----
Answer with reported growth of O=C1CN(CCN2CC(=O)NC(=O)C2)CC(=O)N1
110

* * *

Tested on: SK-MEL-5 melanoma
Experiment: NCI-60 one-dose screen, 48 h
Conditions: 10 µM unless noted
This is part of a sample that, as a whole, favours compounds with a hit. Of some 83,000 tested, about 20% had one in any assay. Active and inactive are the calls of the source. How the source made its calls: active means growth percent below 10; inactive means the rest.
The reply should name one outcome from 1 = active, 0 = inactive

Take a look at these entries with their results.
compound | system_tested | label_class
COc1cc(NS(C)(=O)=O)ccc1Cc1c2ccccc2nc2ccccc12 | SK-MEL-5 melanoma | 1
O=C1C(Cl)=C(Nc2cccc3cc4ccccc4nc23)C(=O)c2ccccc21 | SK-MEL-5 melanoma | 0

Which result was noted for this compound in the test: Nc1nc(-c2cc3c(cc2Cl)NC(=O)/C3=C/c2ccccc2)cs1
0

Which result was noted for this compound in the test: Cc1nc(-c2ccc(Cl)cc2)ccc1NC(=O)Nc1cccc(C(F)(F)F)c1
0

Which result was noted for this compound in the test: CC(C)(C)OC(=O)N1CC(Cn2cc(C(F)(F)F)c3c(Cl)ncnc32)C1
1

Which result was noted for this compound in the test: C=C1C(=O)O[C@H]2[C@H]1CC/C(COC(=O)c1cccc3ccccc13)=C\CC[C@@]1(C)O[C@@H]21
1

Which result was noted for this compound in the test: O=C1CCC(=O)N1C1CCCCC1
0

* * *

Tested on: SW-620 colon
Test: NCI-60 one-dose screen, 48 h
Settings: 10 µM unless noted
Description: Growth inhibition of the SW-620 human tumor cell line is measured as a screen for anti-cancer activity. Cells are grown in 96 well plates and exposed to the test compound for 48 hours. Compounds are tested at a single concentration, which is 10^-5 M for most compounds. The reported endpoint is percent growth (GI% or GIPRCNT), where numbers from 0 - 100% represent growth inhibition, and numbers from -100% - 0 represent cell death. For example, a value of 40 represents 60% growth inhibition. […]
Compounds without any hit were thinned out: in the full panel of roughly 83,000, 20% have a hit. Active and inactive are the calls of the source. The calls were made as follows: active = growth percent below 10; inactive = the rest.
The reply should name one outcome from active, inactive

Take a look at these entries with their results.
compound | system_tested | label_class
C=C1C(=O)O[C@H]2[C@H]1CC/C(COC(=O)c1cc(OC)c(OC)c(OC)c1)=C\CC[C@@]1(C)O[C@@H]21 | SW-620 colon | active
ClC1c2ccccc2CCc2ccccc21 | SW-620 colon | inactive
CCN(CC)CC(=O)Nc1c(C)cccc1C | SW-620 colon | inactive
C=C1C(=O)O[C@H]2[C@H]1CC/C(COC(=O)c1ccc(Br)cc1)=C\CC[C@@]1(C)O[C@@H]21 | SW-620 colon | active

Next, consider the following compound.
Which result was noted for this compound in the test: OC(COc1ccccc1Cl)CN1CCN(c2ccc(Cl)cc2)CC1 (stereo not given)
inactive

* * *

Test system: 786-0 renal
Assay: NCI-60 one-dose screen, 48 h
Conditions: 10 µM unless noted
The panel holds about 83,000 compounds, 20% with a hit somewhere; the sample as a whole holds those more often. The source made the active and inactive calls. How the source made its calls: active means growth percent below 10; inactive means the rest.
The reply should name one outcome from Yes for active, No for inactive

molecule | label_class
Cc1[nH]c2ccc(F)cc2c1CCNC(=O)C1CCN(C(=O)c2ccc(-c3ccccc3)cc2)CC1 | No
O=C(CSc1nnc(-c2ccc(Cl)cc2)o1)Nc1ccc(C(=O)/C=C/c2ccccc2)cc1 | No
CC(C)CCC[C@@H](C)[C@H]1CC[C@H]2[C@@H]3CC=C4N(c5ccccc5)C(=O)CC[C@]4(C)[C@H]3CC[C@]12C | No
COc1ccc(-c2ccc(NC(=O)Nc3cccc(C(F)(F)F)c3)c(C)n2)cc1 | No
Fc1ccc(Nc2ncnc3ccc(-c4cn[nH]c4)cc23)cc1Cl | No

Which result was noted for this molecule in the test: Nc1ccc(S(=O)(=O)Nc2ccnn2-c2ccccc2)cc1
No

Which result was noted for this molecule in the test: Cc1cn(-c2cc(C(=O)Nc3cccc(-n4ccc5c(NC(=O)c6ccccc6)nccc54)c3)cc(C(F)(F)F)c2)cn1
Yes

Which result was noted for this molecule in the test: Cc1cccc(NC(=O)CCc2ccc(N3C(N)=NC(N)=NC3(C)C)cc2)c1
Yes

Which result was noted for this molecule in the test: CCC1S/C(=N\N=C(/C)c2cccs2)N(c2ccccc2)C1=O (stereo unspecified)
No

Which result was noted for this molecule in the test: CCOC(=O)C1CSC(C)(C(=O)OCC)N1 (stereo unspecified)
No

Which result was noted for this molecule in the test: CNCCCOc1c(Br)cc(CCNC(=O)/C(Cc2cc(Br)c(OC)c(Br)c2)=N/O)cc1Br
Yes

* * *

System: SNB-19 CNS
Assay: NCI-60 one-dose screen, 48 h (100 = growth as untreated, 0 = no growth, -100 = all killed)
Details: 10 µM unless noted
Compounds without any hit were thinned out: in the full panel of roughly 83,000, 20% have a hit.
# if value of growth reaches 90%, tag condition met; if it stays below, tag condition not met

Take a look at these entries with their results.
compound | label_class
COc1ccc(SC2c3ccc(O)cc3Oc3nc(N)c(C#N)c(N)c32)cc1 (stereo unspecified) | condition not met
COc1ccc2c(c1)nnn1c3ncccc3c(N=O)c21 | condition not met
CC(C)(C)OC(=O)N1CCN(CCn2cc(C(F)(F)F)c3c(Cl)ncnc32)CC1 | condition not met

Could you tell me if the measured growth of CCOC(=O)CSc1nnc(-c2cc3c([nH]c4ccccc43)c(-c3cccc(O)c3)n2)n1-c1ccc(C)cc1 reaches 90% or more?
condition met

Could you tell me if the measured growth of O=C(CSc1nnc(-c2ccc(Cl)cc2)o1)Nc1ccc(C(=O)/C=C/c2ccccc2)cc1 reaches 90% or more?
condition not met

Could you tell me if the measured growth of NN=C(c1ccc(Cl)cc1)c1ccc(Cl)cc1 reaches 90% or more?
condition met

Could you tell me if the measured growth of CN1CCN(CC(=O)N(C)c2ccc(N=C(c3ccccc3)c3c(O)[nH]c4ccc(C#N)cc34)cc2)CC1 reaches 90% or more?
condition not met

Could you tell me if the measured growth of Cc1cc2nc(-c3c(N)ncc(C#N)c3-c3ccc(Cl)cc3)[nH]c2cc1C reaches 90% or more?
condition not met

Could you tell me if the measured growth of NC(=O)C1=C[C@H]2[C@H]3C=C[C@@]2(O)C(=O)O[C@@H]3O1 reaches 90% or more?
condition not met

Could you tell me if the measured growth of Cc1nccc2c3ccc(OCc4cn(Cc5ccc(Br)cc5)nn4)cc3n(CCCc3ccccc3)c12 reaches 90% or more?
condition not met

Could you tell me if the measured growth of Cc1cc(N2CCOCC2)nc(N(CCNc2ccnc3cc(Cl)ccc23)Cc2ccco2)n1 reaches 90% or more?
condition not met
